target: Cdc42 Q61L (Homo sapiens, UniProt P60953, Q61L); assay: Multiplex bead-based flow cytometry dose-response of fluorescent guanine nucleotide binding; conditions: read-out: EC50 Cdc42 Q61L; BODIPY-FL GTP binding; 2 h at 4°C
Sequence (P60953 whole entry Q61L): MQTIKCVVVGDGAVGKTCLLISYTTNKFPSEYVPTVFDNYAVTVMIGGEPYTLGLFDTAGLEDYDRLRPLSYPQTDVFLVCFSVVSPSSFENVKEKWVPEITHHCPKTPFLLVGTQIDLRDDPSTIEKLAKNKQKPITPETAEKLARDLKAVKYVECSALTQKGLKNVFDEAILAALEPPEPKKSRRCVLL
pEC50: −log10 of the molar value.
# Lookup of reported pEC50 keyed by entry

[[record]]
compound_structure_string = "CN1CCc2c(sc3nc(Nc4ccc(F)cc4)oc(=O)c23)C1"
observable = "pEC50"
assay_value = "< 3.00"


Query: Form field: pEC50 recorded for COC(=O)c1c(N)sc2c1CC(C)(C)OC2 with Cdc42 Q61L (Homo sapiens, UniProt P60953, Q61L) (enter value)
Result: < 3.00

Query: Form field: pEC50 recorded for Cc1ccc(NC(=O)Nc2sc3c(c2C(=O)O)CCN(C)C3)cc1 with Cdc42 Q61L (Homo sapiens, UniProt P60953, Q61L) (enter value)
Result: 4.55

Query: Form field: pEC50 recorded for CC(C)(C)OC(=O)c1c(NC(=S)NC(=O)c2ccccc2)sc2c1CCOC2 with Cdc42 Q61L (Homo sapiens, UniProt P60953, Q61L) (enter value)
Result: < 3.00

====

# Lookup of reported pEC50 keyed by entry
biological target: Rac1 Q61L (Homo sapiens, UniProt P63000, Q61L); assay: Multiplex bead-based flow cytometry dose-response of fluorescent guanine nucleotide binding; settings: read-out: EC50 Rac1 Q61L; BODIPY-FL GTP binding; 2 h at 4°C
Note on units: pEC50 is unitless, being -log10 of a concentration expressed in mol/L.

Please review the entries below; each comes with its answer.
[[record]]
compound_structure_string = "CC1(C)Cc2c(sc(NC(=S)NC(=O)c3cccs3)c2C(=O)O)CO1"
observable = "pEC50"
assay_value = 7.57

[[record]]
compound_structure_string = "Cc1ccccc1C(=O)NC(=S)Nc1sc2c(c1C(=O)O)CC(C)(C)OC2"
observable = "pEC50"
assay_value = 6.43

[[record]]
compound_structure_string = "O=C(NC(=S)Nc1sc2c(c1C(=O)O)CC1(CCCC1)OC2)c1ccccc1"
observable = "pEC50"
assay_value = 7.10

[[record]]
compound_structure_string = "CC1(C)Cc2c(sc(NC(=S)NC(=O)c3ccc(Br)cc3)c2C(=O)O)CO1"
observable = "pEC50"
assay_value = 6.55


Kindly consider the entry below.
Query: Which measured pEC50 value corresponds to Cc1ccc(C(=O)NC(=S)Nc2sc3c(c2C(=O)O)CC(C)(C)OC3)cc1 ?
Result: 6.85
